Reported Percent Effect by item:
target: Proteasome subunit beta (Trypanosoma cruzi) (UniProt O96673); experiment: Trypanosoma cruzi proteasome chymotrypsin-like activity (TcProtChymo) assay.; assay type: functional; parameters: scale not given: in the data most compounds retested in dose-response had high values; conditions: 9.37 µM
Sequence (O96673 as listed by the source): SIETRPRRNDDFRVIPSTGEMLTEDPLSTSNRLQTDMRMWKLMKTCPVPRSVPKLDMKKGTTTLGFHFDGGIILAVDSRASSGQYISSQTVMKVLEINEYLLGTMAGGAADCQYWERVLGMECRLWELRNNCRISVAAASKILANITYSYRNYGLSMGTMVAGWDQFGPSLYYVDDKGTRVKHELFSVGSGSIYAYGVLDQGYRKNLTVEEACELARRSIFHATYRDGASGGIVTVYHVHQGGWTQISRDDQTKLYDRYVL
Numeric answer only, unit % assumed.

# Percent Effect measured on Proteasome subunit beta (Trypanosoma cruzi) (UniProt O96673) for item `CN(CC(=O)N1CCC(Oc2ccccc2)CC1)c1cnccn1` = 5.75

----------
species on record: Homo sapiens; experiment: To identify inhibition of the IFN signalling (Jak-Stat) pathway via expression of an eGFP reporter gene under the control of an IFN-stimulated response element (ISRE) containing MxA promoter.; assay type: functional; design: scale not given: direction of the effect not stated beside the values; conditions: 30 µM
property: Percent Effect (%)
Numeric answer only, unit % assumed.

Consider the worked cases shown below.
{"compound": "CCN1C[C@H]2CCN(C(C)=O)CC[C@H]2S1(=O)=O", "property": "Percent Effect", "quantitative readout": 1.4}
{"compound": "CC1=N[C@@]2(CC[C@@H]3CN(Cc4ccccc4F)C[C@@H]32)C(=O)N1CC1CC1", "property": "Percent Effect", "quantitative readout": 11.1}

Value of measured Percent Effect for the entry Cc1noc2ncc(C(=O)NCC3CCN(C(C)C)C3)cc12 (stereo unspecified) : 4.5

Value of measured Percent Effect for the entry `N#Cc1ccc(CNC(=O)NC2CCN(CC(F)F)CC2)cc1` : 8.62

Value of measured Percent Effect for the entry `Cc1cccc(CC(=O)NCCCOC(C)C)c1` : 27.8

Value of measured Percent Effect for the entry Cc1ccc(N2CCC3(CC2)CC(OCC(=O)N(C)C)CO3)nn1 (stereo unspecified) : -14.6

Value of measured Percent Effect for the entry `CCc1nc(COc2ccc(OCc3cnn(C)c3)cc2)no1` : 23.4

Value of measured Percent Effect for the entry `CS(=O)(=O)N[C@@H]1CN(C(=O)c2ccccn2)[C@@H]2CCCO[C@@H]21` : -7.84

Value of measured Percent Effect for the entry Cc1cc(CN(C)C2CCCN(Cc3noc(C4CC4)n3)C2)no1 (stereo unspecified) : 15.9

Value of measured Percent Effect for the entry c1ccc(N2CCCC3(COCCN(c4nccs4)C3)C2)nc1 (stereo unspecified) : 31.6

Value of measured Percent Effect for the entry CC(C)c1cc(NCC(O)CO)n2nccc2n1 (stereo unspecified) : 9

----------
target: Proteasome subunit beta (Trypanosoma cruzi) (UniProt O96673); experiment: Trypanosoma cruzi proteasome chymotrypsin-like activity (TcProtChymo) assay.; format: functional; parameters: scale not given: in the data most compounds retested in dose-response had high values; details: 9.37 µM
Label true (1) when Percent Effect is at or above 10%; anything below gets false (0).

Below, 3 molecules whose answers are already recorded.
{"molecule": "CC1=Nc2c(c(=O)[nH]n2C2CCCC2)C(c2cccc(O)c2)S1 (configuration not stated)", "label": "true (1)"}
{"molecule": "COc1ccc(C(=O)N2Cc3c(Cn4ccnc4)nn(C)c3C2)cc1", "label": "true (1)"}
{"molecule": "O=C(c1csc(Br)c1)N1CCCC(n2ccnc2)C1 (configuration not stated)", "label": "false (0)"}

Given the entry `Cc1ncsc1C(=O)N(C)Cc1ccncc1` , answer whether its Percent Effect meets or surpasses 10%.
true (1)

Given the entry `c1ccc(COC2CCN(c3cncc(-n4cccn4)n3)CC2)cc1` , answer whether its Percent Effect meets or surpasses 10%.
true (1)

Given the entry `COc1c(CNCCNC(=O)Cc2ccc(F)cc2)c(C)nn1C` , answer whether its Percent Effect meets or surpasses 10%.
true (1)

Given the entry `CC(=O)NCCN1CCC(c2cccs2)CC1` , answer whether its Percent Effect meets or surpasses 10%.
true (1)

Given the entry `CCN(Cc1nc(C(C)C)no1)Cc1cccs1` , answer whether its Percent Effect meets or surpasses 10%.
true (1)

Given the entry `CNC(=O)CCNC(=O)c1cccc(Cn2nc(C)cc2C)c1` , answer whether its Percent Effect meets or surpasses 10%.
true (1)

Given the entry `O=C(c1cnn2c1OCCC2)N1CCN(C/C=C/c2ccccc2)CC1` , answer whether its Percent Effect meets or surpasses 10%.
false (0)

Given the entry O=C1CCSCC(C(=O)N2CCCC2)N1 (configuration not stated) , answer whether its Percent Effect meets or surpasses 10%.
false (0)

Given the entry `O=C(c1cc[nH]n1)N1CCC(Nc2cccnn2)CC1` , answer whether its Percent Effect meets or surpasses 10%.
false (0)

----------
biological target: Chromo domain-containing protein 1 (Saccharomyces cerevisiae (strain ATCC 204508 / S288c) (Baker's yeast)); assay: ScCHD-1 Enzyme Inhibition Assay; assay type: functional; design: scale not given: in the data most compounds retested in dose-response had high values; conditions: 30 µM
Reported Percent Effect by item:
Numeric answer only, unit % assumed.

{"molecule": "Cc1cccc(C(=O)N(C)Cc2cc(Br)cs2)n1", "Percent Effect (%)": 0.914}
{"molecule": "Cc1cc(C)n(C2CCCN(C(=O)C3=NN(C)C(=O)CC3)C2)n1 (stereo not drawn)", "Percent Effect (%)": -9.84}
{"molecule": "COCCN1CCC(N(Cc2noc(C3CC3)n2)C(C)=O)C1 (stereo not drawn)", "Percent Effect (%)": -8.27}

Value of measured Percent Effect for the entry CNCC(=O)N1CCCC(c2nccnc2Oc2cccc(F)c2)C1 (stereo not drawn) : -4.73

Value of measured Percent Effect for the entry Cn1ccnc1CN1CCC2(COCCN(Cc3ccsc3)C2)C1 (stereo not drawn) : -6.67

Value of measured Percent Effect for the entry Cc1cc(CN(Cc2cccs2)CC2CCCO2)no1 (stereo not drawn) : 16.7

Value of measured Percent Effect for the entry CNC(=O)C1Cn2ccnc2C2(CCN(Cc3cccc(C)n3)CC2)O1 (stereo not drawn) : 0.265

Value of measured Percent Effect for the entry `COc1cccc(S(=O)(=O)NC(=O)COc2c(C)cccc2C)c1` : -4.1

Value of measured Percent Effect for the entry Cc1nc(CN2CC3(CCN(c4ncc(F)cn4)C3)CC2=O)cs1 (stereo not drawn) : -4.69

Value of measured Percent Effect for the entry `COc1cccc(NC(=O)N(CCO)Cc2ccsc2)c1` : -4.52

----------
Reported Percent Effect by item:
Molecular target: Tyrosyl-tRNA synthetase, putative (Trypanosoma cruzi (strain CL Brener))
Sequence (whole entry): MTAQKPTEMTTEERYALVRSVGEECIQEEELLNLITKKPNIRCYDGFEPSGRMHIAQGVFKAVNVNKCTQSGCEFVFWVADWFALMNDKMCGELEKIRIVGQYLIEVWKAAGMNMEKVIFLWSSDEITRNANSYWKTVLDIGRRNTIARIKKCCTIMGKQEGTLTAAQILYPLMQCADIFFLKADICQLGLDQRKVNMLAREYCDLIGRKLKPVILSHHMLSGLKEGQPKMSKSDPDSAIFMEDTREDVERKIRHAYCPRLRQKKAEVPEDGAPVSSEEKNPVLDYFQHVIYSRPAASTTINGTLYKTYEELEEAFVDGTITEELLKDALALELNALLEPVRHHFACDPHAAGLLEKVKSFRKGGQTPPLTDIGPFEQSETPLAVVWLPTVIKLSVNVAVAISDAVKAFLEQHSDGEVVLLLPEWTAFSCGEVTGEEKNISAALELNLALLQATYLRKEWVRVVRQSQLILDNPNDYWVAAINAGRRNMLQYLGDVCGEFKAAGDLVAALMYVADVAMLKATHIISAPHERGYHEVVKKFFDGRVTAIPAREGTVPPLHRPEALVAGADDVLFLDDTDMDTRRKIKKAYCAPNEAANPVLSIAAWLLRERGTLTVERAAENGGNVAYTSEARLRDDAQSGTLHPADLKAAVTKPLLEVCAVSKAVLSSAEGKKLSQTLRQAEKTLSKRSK
Assay: Trypanosoma cruzi tyrosyl tRNA synthetase (TcYRS) SOP
Assay type: functional
Design: scale not given: direction of the effect not stated beside the values
Details: 30 µM
Numeric answer only, unit % assumed.

Consider the worked cases shown below.
{"compound": "c1cncc(OCc2nnn3c2CN(Cc2ccsc2)CCC3)c1", "Percent Effect (%)": -5}
{"compound": "CN(C(=O)c1cccc(C(=O)NS(C)(=O)=O)c1)c1ccccc1", "Percent Effect (%)": 13.6}
{"compound": "CNC(=O)CC1CC2(CCN(Cc3nccs3)CC2)c2ccccc21 (stereo unspecified)", "Percent Effect (%)": 8.54}

# Percent Effect measured on Tyrosyl-tRNA synthetase, putative (Trypanosoma cruzi (strain CL Brener)) for item `CC(C)C(=O)NCc1cccc(N2CCCCC2=O)c1` = 21.2

# Percent Effect measured on Tyrosyl-tRNA synthetase, putative (Trypanosoma cruzi (strain CL Brener)) for item `O=C1CO[C@@H]2CN(S(=O)(=O)c3ccccc3)C[C@H]2N1CC1CC1` = -20

# Percent Effect measured on Tyrosyl-tRNA synthetase, putative (Trypanosoma cruzi (strain CL Brener)) for item `CN(C)C(=O)[C@@H]1CCO[C@@H]2CCN(Cc3ccccc3)C[C@@H]21` = 8.54

----------
biological target: AMP-activated protein kinase, AMPK (Homo sapiens) (UniProt P54646+O43741+P54619+Q9UGJ0+Q9Y478+Q13131+Q9UGI9); assay: AMP-dependent Kinase enzyme assay. An in vitro enzyme assay that detects ADP turnover that is directly proportional to AMPK activity. This uses naive AMPK that is activated during the assay with MK-8722; assay type: functional; parameters: scale not given: direction of the effect not stated beside the values; conditions: 30 µM
property: Percent Effect (%)
Numeric answer only, unit % assumed.

Consider the worked cases shown below.
{"compound": "CCn1cnnc1CNC(=O)NC(C)C(C)C (stereo not drawn)", "Percent Effect / %": 3.19}
{"compound": "CCOCCNc1nc(C2CCCC2)nc2c1cnn2C", "Percent Effect / %": 6.03}
{"compound": "O=C1CC2(CCN(CC3CCOC3)CC2)CN1Cc1cc(F)cc(F)c1 (stereo not drawn)", "Percent Effect / %": -5.76}
{"compound": "CCCC1CCCN(Cc2csc(-c3cnn(C)c3)n2)CC1 (stereo not drawn)", "Percent Effect / %": -0.945}
{"compound": "CC(C)N1CCC(Cc2cncc(-c3ccccc3C(=O)O)n2)CC1", "Percent Effect / %": 9.75}
{"compound": "CCOc1cc(C)nc(N2CCN(C(=O)c3ccc[nH]3)CC2)n1", "Percent Effect / %": 1.91}
{"compound": "Fc1cccc(CN2CCC(c3n[nH]c4ncccc34)CC2)c1F", "Percent Effect / %": 25.8}
{"compound": "Cc1ccc(CNC(=O)CN2CCN(CC(O)c3ccco3)CC2)cc1 (stereo not drawn)", "Percent Effect / %": -4.52}
{"compound": "Cc1ccc2c(n1)N(CCN(C)C)CCN(C(=O)c1ccc[nH]1)C2", "Percent Effect / %": 6.26}
{"compound": "O=C(NCc1ccccc1)c1nnc2ccc(N3CCOCC3)cc2n1", "Percent Effect / %": 67.7}

Value of measured Percent Effect for the entry `O=S(=O)(NC1=NCN(CCc2cccs2)CN1)c1ccc(F)cc1` : 3.26

Value of measured Percent Effect for the entry `CCOc1ncccc1C(=O)NCCN(CC)C1CC1` : 1.07

Value of measured Percent Effect for the entry Cc1nc(CN2CCC(N(C)Cc3noc(C(C)C)n3)C2)cs1 (stereo not drawn) : -8.83

Value of measured Percent Effect for the entry O=C(CN1CCN(CC(O)C2CC2)CC1)NCc1ccc(F)cc1 (stereo not drawn) : 6.87
